# Test system: PC-3
# assay-notes: Cytotoxicity against human PC3 cells assessed as reduction in cell viability after 48 hrs under normoxic conditions by MTT assay
# Assay type: functional, cell-based
# assay-context: PC-3, 48 h
pIC50: −log10 of the molar value.
Listing of entries alongside the reported pIC50.

NS(=O)(=O)c1cc(NC(=O)NCCc2ccccc2)c(O)c([N+](=O)[O-])c1 | < 3.70

Fill in: pIC50 of CC(=O)OC[C@@H]1O[C@@H](OC(C)=O)[C@@H](NC(=O)Nc2cc(S(N)(=O)=O)cc([N+](=O)[O-])c2O)[C@H](OC(C)=O)[C@H]1OC(C)=O is ___
< 3.70

Fill in: pIC50 of Nc1cc(S(N)(=O)=O)cc([N+](=O)[O-])c1O is ___
< 3.70

Fill in: pIC50 of Cc1cc(C)[n+](-c2cc(S(N)(=O)=O)cc([N+](=O)[O-])c2O)c(C)c1.[O-][Cl+3]([O-])([O-])[O-] is ___
3.85

Fill in: pIC50 of NS(=O)(=O)c1cc(NC(=O)Nc2ccc(F)cc2)c(O)c([N+](=O)[O-])c1 is ___
< 3.70

Origin of measurements: ChEMBL document CHEMBL4261658
